Target: INSRR (human) (UniProt P14616)
Sequence (P14616 whole entry, looked up): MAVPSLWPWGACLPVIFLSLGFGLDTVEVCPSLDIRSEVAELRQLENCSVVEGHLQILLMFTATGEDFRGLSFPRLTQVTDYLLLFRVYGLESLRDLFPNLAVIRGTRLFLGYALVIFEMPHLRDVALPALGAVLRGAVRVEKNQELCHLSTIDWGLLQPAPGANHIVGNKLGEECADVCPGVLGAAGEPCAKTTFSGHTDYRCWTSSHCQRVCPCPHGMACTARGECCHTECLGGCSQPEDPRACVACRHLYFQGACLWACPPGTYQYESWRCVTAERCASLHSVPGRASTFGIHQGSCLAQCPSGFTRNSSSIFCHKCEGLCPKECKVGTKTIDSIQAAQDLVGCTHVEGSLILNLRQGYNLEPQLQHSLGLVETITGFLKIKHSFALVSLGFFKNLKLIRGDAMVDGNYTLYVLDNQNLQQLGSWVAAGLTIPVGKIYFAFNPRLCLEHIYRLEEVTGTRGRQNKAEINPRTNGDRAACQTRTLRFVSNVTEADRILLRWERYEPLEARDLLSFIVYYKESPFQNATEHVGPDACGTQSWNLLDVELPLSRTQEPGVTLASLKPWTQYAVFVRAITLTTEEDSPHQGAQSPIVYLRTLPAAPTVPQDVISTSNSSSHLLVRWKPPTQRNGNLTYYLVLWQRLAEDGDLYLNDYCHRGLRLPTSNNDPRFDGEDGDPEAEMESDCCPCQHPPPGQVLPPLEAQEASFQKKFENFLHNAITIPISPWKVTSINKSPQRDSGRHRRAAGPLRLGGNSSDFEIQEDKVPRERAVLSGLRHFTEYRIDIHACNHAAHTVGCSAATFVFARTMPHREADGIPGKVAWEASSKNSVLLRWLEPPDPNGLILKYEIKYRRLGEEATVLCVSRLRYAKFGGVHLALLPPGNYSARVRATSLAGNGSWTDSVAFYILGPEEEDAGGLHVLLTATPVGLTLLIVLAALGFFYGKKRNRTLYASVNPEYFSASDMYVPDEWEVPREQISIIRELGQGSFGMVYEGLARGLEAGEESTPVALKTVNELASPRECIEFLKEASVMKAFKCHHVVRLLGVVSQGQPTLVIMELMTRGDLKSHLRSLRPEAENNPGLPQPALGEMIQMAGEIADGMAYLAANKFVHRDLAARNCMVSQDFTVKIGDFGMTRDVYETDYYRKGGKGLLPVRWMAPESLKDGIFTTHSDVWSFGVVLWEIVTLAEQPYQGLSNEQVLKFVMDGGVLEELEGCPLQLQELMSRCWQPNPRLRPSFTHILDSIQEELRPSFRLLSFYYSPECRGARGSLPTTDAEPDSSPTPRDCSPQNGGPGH
Experiment: radiometric filter-binding kinase assay, Kinase HotSpot
Settings: compound 0.5 µM; ATP 10 µM
Endpoint label: residual activity (%)
# output: bare number, implied unit %

Guide cases for residual activity, answers given:
- CCCC(=O)Oc1ccc2[nH]c(C(=O)c3cc4ccccc4[nH]3)cc2c1: 97.9
- Cc1[nH]c(/C=C2\C(=O)Nc3ccc(S(=O)(=O)N(C)c4cccc(Cl)c4)cc32)c(C)c1C(=O)N1CCN(C)CC1: 93
- N#CC(C#N)=C(N)/C(C#N)=C/c1ccc(O)cc1: 99.9
- CNc1cc2c(Nc3cccc(Br)c3)ncnc2cn1: 98.2

Prompt line: Give the measured residual activity of O=C1NC(=O)C(c2cn(CCCn3ccnc3)c3ccccc23)=C1Nc1ccccc1 .
Response line: 101

* * *

Target: CAMK2D (human) (UniProt Q13557)
Sequence (Q13557 whole entry, looked up): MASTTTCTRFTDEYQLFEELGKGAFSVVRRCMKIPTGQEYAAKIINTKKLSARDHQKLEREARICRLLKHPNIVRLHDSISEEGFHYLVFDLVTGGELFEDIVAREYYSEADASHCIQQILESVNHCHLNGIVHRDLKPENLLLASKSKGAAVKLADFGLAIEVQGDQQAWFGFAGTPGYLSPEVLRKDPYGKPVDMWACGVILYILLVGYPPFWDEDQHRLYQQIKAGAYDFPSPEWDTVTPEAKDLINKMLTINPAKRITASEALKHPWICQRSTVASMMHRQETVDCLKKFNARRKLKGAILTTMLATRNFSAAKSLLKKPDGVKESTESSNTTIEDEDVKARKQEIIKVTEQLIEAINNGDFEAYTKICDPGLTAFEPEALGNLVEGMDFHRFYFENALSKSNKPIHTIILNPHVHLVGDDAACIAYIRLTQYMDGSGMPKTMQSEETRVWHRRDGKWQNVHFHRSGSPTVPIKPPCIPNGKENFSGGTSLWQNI
Assay: radiometric filter-binding kinase assay, Kinase HotSpot
Conditions: compound 0.5 µM; ATP 10 µM
Reported residual activity values follow for various compounds
Numeric answer only, unit % assumed.

• CC#CC(=O)Nc1cc2c(Nc3ccc(F)c(Cl)c3)ncnc2cn1 = 100
• Cc1[nH]c(/C=C2\C(=O)Nc3ccc(S(=O)(=O)N(C)c4cccc(Cl)c4)cc32)c(C)c1C(=O)N1CCN(C)CC1 = 68.4
• CCOC(=O)c1c(C)[nH]c(/C=C2\C(=O)Nc3ccccc32)c1C = 93.9
• O=C(Nc1cccc(Nc2nccc(Nc3cccc(C(F)(F)F)c3)n2)c1)C1CC1 = 93.5

Prompt line: Param item = CC(=O)c1ccc(N2CCOCC2)cc1O ; retrieve measured residual activity.
Response line: 100

Prompt line: Bench note: what residual activity did CNc1cc2c(Nc3cccc(Br)c3)ncnc2cn1 show?
Response line: 97.9

Prompt line: Would you kindly share the measured residual activity for COc1ccc(COc2ccc(Cc3cnc(N)nc3N)cc2OC)cc1 ?
Response line: 109

Prompt line: Reported residual activity, compound N#C/C(=C(/N)Sc1ccc(N)cc1)c1ccccc1C(F)(F)F : ____
Response line: 93.4

Prompt line: For the compound O=C1NC(=O)C(c2cn(CCCn3ccnc3)c3ccccc23)=C1Nc1ccccc1 , what residual activity is on record?
Response line: 85.4

Prompt line: If you can, please state the reported residual activity value of CCCC(=O)Oc1ccc2[nH]c(C(=O)c3cc4ccccc4[nH]3)cc2c1 .
Response line: 111

* * *

Target: UniProt:P05771
Sequence (P05771 whole entry, looked up): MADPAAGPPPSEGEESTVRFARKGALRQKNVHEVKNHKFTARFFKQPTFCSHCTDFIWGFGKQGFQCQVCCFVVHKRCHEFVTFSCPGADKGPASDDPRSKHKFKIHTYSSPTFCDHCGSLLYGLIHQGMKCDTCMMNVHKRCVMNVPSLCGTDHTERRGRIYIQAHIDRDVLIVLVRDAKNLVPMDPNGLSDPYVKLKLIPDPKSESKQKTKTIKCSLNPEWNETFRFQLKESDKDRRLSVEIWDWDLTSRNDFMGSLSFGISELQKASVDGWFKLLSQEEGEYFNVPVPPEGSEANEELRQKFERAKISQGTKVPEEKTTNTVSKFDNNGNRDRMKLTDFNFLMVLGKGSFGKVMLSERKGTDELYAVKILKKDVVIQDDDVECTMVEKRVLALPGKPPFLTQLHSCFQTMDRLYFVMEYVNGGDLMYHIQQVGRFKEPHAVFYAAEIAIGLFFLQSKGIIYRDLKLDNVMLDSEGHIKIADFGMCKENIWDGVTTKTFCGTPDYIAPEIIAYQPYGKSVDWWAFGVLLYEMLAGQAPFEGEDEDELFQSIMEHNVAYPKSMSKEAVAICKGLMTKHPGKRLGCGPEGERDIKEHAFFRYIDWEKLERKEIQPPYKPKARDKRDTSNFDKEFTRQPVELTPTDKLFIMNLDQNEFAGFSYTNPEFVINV
Assay: radiometric filter-binding kinase assay, Kinase HotSpot
Conditions: compound 0.5 µM; ATP 10 µM
The entries below are paired with their reported residual activity.
Enter your answer as a number in %; do not include the unit.

Study these solved cases before continuing.
• CCCC(=O)Oc1ccc2[nH]c(C(=O)c3cc4ccccc4[nH]3)cc2c1 = 97.3
• CC(=O)c1ccc(N2CCOCC2)cc1O = 96.3
• CNc1cc2c(Nc3cccc(Br)c3)ncnc2cn1 = 95.3
• CCN(CC)CCNC(=O)c1c(C)[nH]c(/C=C2\C(=O)Nc3ccc(F)cc32)c1C = 90.2
• O=C(Nc1cccc(Nc2nccc(Nc3cccc(C(F)(F)F)c3)n2)c1)C1CC1 = 94.7

Prompt line: Fill in: residual activity of Nc1ncnc2c1c(-c1ccc(Oc3ccccc3)cc1)cn2C1CCCC1 is ___
Response line: 92.8

* * *

Target: TYK2 JH1 catalytic (human)
Assay: radiometric filter-binding kinase assay, Kinase HotSpot
Conditions: compound 0.5 µM; ATP 10 µM
residual activity: recorded values
Number in %, nothing else.

Past entries and their recorded results:
- Nc1ncnc2c1c(-c1ccc(Oc3ccccc3)cc1)cn2C1CCCC1: 98.5
- O=c1cc(N2CCOCC2)oc2c1ccc1ccccc12: 111
- CCN(CC)C(=O)c1ccc(Nc2nc(OCC3CCCCC3)c3nc[nH]c3n2)cc1: 4.96

Prompt line: // lookup residual activity for Cc1[nH]c(/C=C2\C(=O)Nc3ccc(S(=O)(=O)N(C)c4cccc(Cl)c4)cc32)c(C)c1C(=O)N1CCN(C)CC1
Response line: 75.1

Prompt line: I'd like to know its residual activity. The compound in question is Cc1ccc(Nc2nccc(N(C)c3ccc4c(C)n(C)nc4c3)n2)cc1S(N)(=O)=O
Response line: 94

Prompt line: For the compound Cc1ccc(S(=O)(=O)/C=C/C#N)cc1 , what residual activity is on record?
Response line: 82.8

Prompt line: What value of residual activity has been reported for the following compound? CC[n+]1c(/C=C/N(C)c2ccccc2)n(-c2ccccc2)c2ccc(-c3nc4ccccc4s3)cc21
Response line: 88.5

Prompt line: If you can, please state the reported residual activity value of CO[C@H]1CC2CC[C@@H](C)[C@@](O)(O2)C(=O)C(=O)N2CCCC[C@H]2C(=O)OC([C@H](C)C[C@@H]2CC[C@@H](O)[C@H](OC)C2)CC(=O)[C@H](C)/C=C(\C)[C@@H](O)[C@@H](OC)C(=O)[C@H](C)C[C@H](C)/C=C/C=C/C=C/1C (some centres undefined) .
Response line: 107

Prompt line: Look at this compound and give its reported residual activity. CCOC(=O)c1c(C)[nH]c(/C=C2\C(=O)Nc3ccccc32)c1C
Response line: 89.9

Prompt line: What residual activity value was documented for this compound, Cc1ccc(NC2=CC(=O)c3sc(C)nc3C2=O)cc1 ?
Response line: 109

Prompt line: // residual activity lookup, key: c1ccc(-c2n[nH]cc2-c2ccnc3ccccc23)nc1
Response line: 101
